Data origin: ChEMBL document CHEMBL1132817

Record set of IC50 for target or system M-phase inducer phosphatase 2 (Homo sapiens, UniProt P30305).
recorded.endpoint: IC50 (µM)

[[record]]
molecule = "C=C(C)CCC[C@]1(C)CCC[C@@H]2C1=CC[C@@H](C)[C@@H]2C[C@H](O)C1=CC(=O)OC1O (stereo partly drawn)"
recorded_endpoint = "IC50"
quantitative_readout = 27


(P) C=C(C)CCC[C@]1(C)CCC[C@@H]2C1=CC[C@@H](C)[C@]2(C)C[C@H](O)C1=CC(=O)OC1O (stereo partly drawn)
(Q) C=C(C)CCC[C@]1(C)CCC[C@@H]2C1=CC[C@@H](C)[C@@]2(C)C[C@@H](O)C1=CC(=O)O[C@H]1O [DYSIDIOLIDE]
**Query** Identify the item whose IC50 is the smaller number: P or Q Response format: the label of the selected entry.
**Result** P
(P: 18 µM, Q: 87 µM)
